From: ChEMBL document CHEMBL1144430

biological target: Glutamate receptor ionotropic, AMPA (Rattus norvegicus, UniProt P19490+P19491+P19492+P19493); test: Displacement of [3H]AMPA from Ionotropic glutamate receptor of in rat brain synaptosomes
pIC50: −log10 of the molar value.
Each entry below lists one item and its recorded pIC50 value.

{"COMPOUND": "CCn1nnnc1-c1onc(O)c1CC(N)C(=O)O (centres undefined)", "COMPARATOR": "=", "pIC50": 4.57}
{"COMPOUND": "Cn1nnc(-c2onc(O)c2CC(N)C(=O)O)n1 (racemic)", "COMPARATOR": "=", "pIC50": 7.57}
{"COMPOUND": "CC(C)n1nnnc1-c1onc(O)c1CC(N)C(=O)O (centres undefined)", "COMPARATOR": "<", "pIC50": 4.00}
{"COMPOUND": "CC(C)n1nnc(-c2onc(O)c2CC(N)C(=O)O)n1 (centres undefined)", "COMPARATOR": "=", "pIC50": 5.21}
{"COMPOUND": "CCCn1nnnc1-c1onc(O)c1CC(N)C(=O)O (centres undefined)", "COMPARATOR": "<", "pIC50": 4.00}
{"COMPOUND": "CCn1nnc(-c2o[nH]c(=O)c2CC(N)C(=O)O)n1 (centres undefined)", "COMPARATOR": "=", "pIC50": 6.87}
{"COMPOUND": "Cn1nnc(-c2o[nH]c(=O)c2C[C@H](N)C(=O)O)n1", "COMPARATOR": "=", "pIC50": 8.05}
{"COMPOUND": "CCCn1nnc(-c2onc(O)c2CC(N)C(=O)O)n1 (centres undefined)", "COMPARATOR": "=", "pIC50": 5.60}
{"COMPOUND": "Cn1nnnc1-c1onc(O)c1CC(N)C(=O)O (centres undefined)", "COMPARATOR": "=", "pIC50": 4.27}

###

target: Glutamate receptor 3 (Homo sapiens, UniProt P42263); test: Binding affinity for ionotropic Glutamate receptor AMPA 3 expressed in Sf9 cells
Sequence (P42263 whole entry): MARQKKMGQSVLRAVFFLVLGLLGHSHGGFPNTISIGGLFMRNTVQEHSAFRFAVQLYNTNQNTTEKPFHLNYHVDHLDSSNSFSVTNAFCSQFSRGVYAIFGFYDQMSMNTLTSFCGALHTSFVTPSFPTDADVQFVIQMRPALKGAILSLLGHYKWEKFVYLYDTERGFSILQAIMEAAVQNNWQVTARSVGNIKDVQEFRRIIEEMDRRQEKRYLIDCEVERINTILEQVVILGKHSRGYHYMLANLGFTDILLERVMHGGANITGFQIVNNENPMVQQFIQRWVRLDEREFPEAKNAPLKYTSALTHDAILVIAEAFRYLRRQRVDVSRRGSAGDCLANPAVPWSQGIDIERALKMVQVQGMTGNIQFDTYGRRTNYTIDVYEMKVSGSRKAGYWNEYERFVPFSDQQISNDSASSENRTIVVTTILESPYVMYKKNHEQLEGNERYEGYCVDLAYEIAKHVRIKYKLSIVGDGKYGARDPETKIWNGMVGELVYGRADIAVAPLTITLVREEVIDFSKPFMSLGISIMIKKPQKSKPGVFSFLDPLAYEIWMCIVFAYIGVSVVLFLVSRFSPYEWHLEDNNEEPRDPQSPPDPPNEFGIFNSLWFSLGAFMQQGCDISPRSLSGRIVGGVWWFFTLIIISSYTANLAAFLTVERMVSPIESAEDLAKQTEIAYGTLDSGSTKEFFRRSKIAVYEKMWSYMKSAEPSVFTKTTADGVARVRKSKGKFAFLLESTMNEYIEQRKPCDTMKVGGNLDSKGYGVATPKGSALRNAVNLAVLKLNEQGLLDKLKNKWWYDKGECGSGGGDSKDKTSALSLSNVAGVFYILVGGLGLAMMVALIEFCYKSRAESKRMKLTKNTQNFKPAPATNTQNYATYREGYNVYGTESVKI

{"MOLECULE": "CCn1nnc(-c2o[nH]c(=O)c2CC(N)C(=O)O)n1 (stereo unspecified)", "Ki, nM": 44.8}

###

pKi: −log10 of the molar value.
Glutamate receptor 2 (Homo sapiens, UniProt P42262) pKi data
Sequence (P42262 whole entry): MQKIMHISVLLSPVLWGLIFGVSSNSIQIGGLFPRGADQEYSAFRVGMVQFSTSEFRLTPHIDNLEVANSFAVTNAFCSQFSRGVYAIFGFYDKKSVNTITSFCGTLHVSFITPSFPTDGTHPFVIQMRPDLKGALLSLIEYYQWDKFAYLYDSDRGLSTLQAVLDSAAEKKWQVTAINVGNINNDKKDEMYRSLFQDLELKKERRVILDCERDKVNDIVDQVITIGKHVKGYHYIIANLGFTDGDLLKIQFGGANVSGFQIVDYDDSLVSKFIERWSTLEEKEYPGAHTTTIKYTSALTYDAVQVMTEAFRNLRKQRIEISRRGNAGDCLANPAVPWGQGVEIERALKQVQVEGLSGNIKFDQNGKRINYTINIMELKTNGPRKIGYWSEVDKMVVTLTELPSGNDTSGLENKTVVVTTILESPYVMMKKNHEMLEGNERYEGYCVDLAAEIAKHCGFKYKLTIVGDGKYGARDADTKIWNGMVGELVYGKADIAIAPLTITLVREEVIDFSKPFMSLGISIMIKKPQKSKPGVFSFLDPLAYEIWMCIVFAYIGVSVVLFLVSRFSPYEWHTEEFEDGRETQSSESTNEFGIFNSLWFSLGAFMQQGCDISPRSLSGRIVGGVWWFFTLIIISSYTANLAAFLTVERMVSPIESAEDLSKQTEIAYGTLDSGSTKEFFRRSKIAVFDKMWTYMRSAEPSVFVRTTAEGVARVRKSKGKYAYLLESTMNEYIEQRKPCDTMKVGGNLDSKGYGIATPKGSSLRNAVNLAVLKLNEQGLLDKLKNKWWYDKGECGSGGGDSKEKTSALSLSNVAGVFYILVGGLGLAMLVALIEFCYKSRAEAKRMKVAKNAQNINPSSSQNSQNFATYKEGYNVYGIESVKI

{"COMPOUND": "CCCn1nnc(-c2onc(O)c2CC(N)C(=O)O)n1 (configuration not stated)", "pKi": 5.79}
{"COMPOUND": "CCn1nnc(-c2o[nH]c(=O)c2CC(N)C(=O)O)n1 (configuration not stated)", "pKi": 7.10}

###

experiment: In vitro activity at Ionotropic glutamate receptor using cortical wedge assays
ASSAY_ENDPOINT: EC50 (µM)

{"COMPOUND": "CCCn1nnc(-c2onc(O)c2CC(N)C(=O)O)n1 (centres undefined)", "COMPARATOR": "=", "VALUE_MEASURED": 32}
{"COMPOUND": "Cn1nnnc1-c1onc(O)c1CC(N)C(=O)O (centres undefined)", "COMPARATOR": ">", "VALUE_MEASURED": 1000}
{"COMPOUND": "CCn1nnc(-c2o[nH]c(=O)c2CC(N)C(=O)O)n1 (centres undefined)", "COMPARATOR": "=", "VALUE_MEASURED": 3.5}
{"COMPOUND": "CC(C)n1nnc(-c2onc(O)c2CC(N)C(=O)O)n1 (centres undefined)", "COMPARATOR": "=", "VALUE_MEASURED": 71}

###

biological target: Glutamate receptor ionotropic, kainate 1 (Homo sapiens)
Sequence (P39086 whole entry): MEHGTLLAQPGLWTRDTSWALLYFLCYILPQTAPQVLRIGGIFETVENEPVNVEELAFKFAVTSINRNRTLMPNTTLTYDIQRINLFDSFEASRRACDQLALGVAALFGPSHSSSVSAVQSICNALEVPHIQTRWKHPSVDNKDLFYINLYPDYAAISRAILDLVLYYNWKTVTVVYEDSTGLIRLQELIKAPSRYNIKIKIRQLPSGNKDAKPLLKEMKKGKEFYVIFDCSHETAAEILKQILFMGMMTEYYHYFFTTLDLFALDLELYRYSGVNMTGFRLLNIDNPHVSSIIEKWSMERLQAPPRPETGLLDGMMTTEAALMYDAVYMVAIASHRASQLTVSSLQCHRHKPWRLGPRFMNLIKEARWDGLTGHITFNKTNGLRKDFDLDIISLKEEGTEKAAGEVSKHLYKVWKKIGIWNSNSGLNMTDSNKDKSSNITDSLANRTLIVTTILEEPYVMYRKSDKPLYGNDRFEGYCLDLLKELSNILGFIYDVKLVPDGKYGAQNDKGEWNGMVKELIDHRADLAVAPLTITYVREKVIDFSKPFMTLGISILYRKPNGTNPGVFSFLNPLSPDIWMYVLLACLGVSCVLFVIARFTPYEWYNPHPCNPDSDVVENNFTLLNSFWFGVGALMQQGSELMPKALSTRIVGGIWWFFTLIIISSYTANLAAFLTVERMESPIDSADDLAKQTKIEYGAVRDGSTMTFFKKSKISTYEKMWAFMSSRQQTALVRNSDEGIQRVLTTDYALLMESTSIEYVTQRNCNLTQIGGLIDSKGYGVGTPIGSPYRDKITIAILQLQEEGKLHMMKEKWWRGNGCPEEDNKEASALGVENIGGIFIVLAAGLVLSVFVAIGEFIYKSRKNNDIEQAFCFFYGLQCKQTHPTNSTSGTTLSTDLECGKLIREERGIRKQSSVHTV
pKi: −log10 of the molar value.

{"COMPOUND": "Cn1nnc(-c2o[nH]c(=O)c2C[C@H](N)C(=O)O)n1", "pKi": 7.09}
{"COMPOUND": "CCCn1nnc(-c2onc(O)c2CC(N)C(=O)O)n1 (centres undefined)", "pKi": 5.26}
{"COMPOUND": "CCn1nnc(-c2o[nH]c(=O)c2CC(N)C(=O)O)n1 (centres undefined)", "pKi": 5.53}
{"COMPOUND": "CC(C)n1nnc(-c2onc(O)c2CC(N)C(=O)O)n1 (centres undefined)", "pKi": 4.47}
